Every entry's value here was drawn from PubChem BioAssay (NCI).

System: EKVX NSCLC
protocol-description: NCI tumour cell line growth inhibition, 48 h
measurement-name: TGI

[
  {
    "compound": "Nn1c(CCCCCCCCc2nnc(COc3ccc(Cl)cc3Cl)n2N)nnc1COc1ccc(Cl)cc1Cl",
    "tgt": "EKVX NSCLC",
    "measurement-name": "TGI",
    "experimental-value": "> 100 µM"
  },
  {
    "compound": "COc1cc2c(c(OC)c1O)-c1ccc(SC)c(=O)cc1C(NC(C)=O)CC2 (stereo not drawn)",
    "tgt": "EKVX NSCLC",
    "measurement-name": "TGI",
    "experimental-value": "> 100 µM"
  }
]

Query (compound): CS(=O)(=O)OCCCCOS(=O)(=O)CF ; field requested: TGI
> 100 µM

====

Test system: CCRF-CEM leukemia
protocol-description: NCI tumour cell line growth inhibition, 48 h
So I've got a bunch of molecules here, and I need their GI50 values.

Look over these answered cases.
[
  {
    "molecule": "O=C(NCCNc1nccc(-c2c(-c3cccc(O)c3)nc3sccn23)n1)c1ccccc1O",
    "tgt": "CCRF-CEM leukemia",
    "experimental-value": "1.21 µM"
  },
  {
    "molecule": "COc1ccc(-c2cc(-c3ccc(Nc4nc(Nc5ccccc5)nc(Nc5ccc(Cl)cc5)n4)cc3)nc(N)c2C#N)cc1",
    "tgt": "CCRF-CEM leukemia",
    "experimental-value": "1.7 µM"
  }
]

Which GI50 is reported with CCRF-CEM leukemia for this entry: CC1=C(C(=O)Nc2ccc(F)c(Cl)c2)C(c2ccc(Cl)cc2)NC(=O)N1 (stereo not drawn) ?
15.3 µM

====

So I've got a bunch of compounds here, and I need their GI50 values.
System: OVCAR-5 ovarian
protocol-description: NCI tumour cell line growth inhibition, 48 h

Look over these answered cases.
[
  {
    "compound": "O=[N+]([O-])c1cnc(Sc2ccncn2)s1",
    "tgt": "OVCAR-5 ovarian",
    "measurement-name": "GI50",
    "experimental-value": "14 µM"
  },
  {
    "compound": "CC(=O)[O][Hg][c]1c(N)c(C)cc(C)c1F",
    "tgt": "OVCAR-5 ovarian",
    "measurement-name": "GI50",
    "experimental-value": "1.95 µM"
  }
]

Would you mind listing GI50 for each of the following compounds?
1. Cc1cnc(NC(=O)C(Cc2ccccc2)NC(=O)c2ccccc2)s1 (stereo unspecified)
2. COc1cc2c(c(OC)c1O)C(=O)C(OC)C(c1ccc(O)c(O)c1)O2 (stereo unspecified)
3. Cc1cc(=O)n2[nH]c(-c3ccc(C(C)(C)C)cc3)cc2n1

["25.3 µM", "2.27 µM", "17.7 µM"]

Which GI50 is reported with OVCAR-5 ovarian for this entry: CNC(=O)c1cc(Oc2ccc3nc(NC(=O)Nc4ccc(Cl)c(C(F)(F)F)c4)sc3c2)ccn1 ?
2.46 µM

====

So I've got a bunch of molecules here, and I need their TGI values.
System: SK-MEL-5 melanoma
protocol-description: NCI tumour cell line growth inhibition, 48 h

[
  {
    "molecule": "COc1cccc2c1C(=O)C1=C(C2=O)C(O)CC(C)(C)O1 (configuration not stated)",
    "TGI": "28.3 µM"
  }
]

Would you mind listing TGI for each of the following molecules?
1. N=C(N)c1ccc(/C=C/c2ccc(C(=N)N)cc2)cc1
2. CCCN(CCC)CCc1ccc(OC2=CCN(C)CC2)cc1
3. CSCCCN(CCCSC)CCCSC
4. O=C1N(Cl)C(=O)C(c2ccc(Cl)cc2)(c2ccc(Cl)cc2)N1Cl
5. COc1ccc(NC(=O)c2cc(OC)cc(OC)c2)cc1

["> 100 µM", "> 100 µM", "> 100 µM", "> 100 µM", "> 100 µM"]

Would you mind listing TGI for each of the following molecules?
1. Cc1ccc(N=N/C(=N/NC(=O)c2cc(Cl)ccc2O)c2ccc(N(CCC#N)CCC#N)cc2C)cc1
2. C/C(=C\CO)CC/C=C(\C)CNc1c(F)c(F)c(F)c(F)c1F
3. C=CCC1(O)CC(n2cc(C)c(=O)[nH]c2=O)OC1CO[Si](C)(C)C(C)(C)C (configuration not stated)
4. Clc1cccc(Cc2cn3cc(-c4ccccc4)nc3s2)c1Cl
5. COc1ccc(NC(=S)Nc2cc(C)cc(C)n2)cc1
6. Cc1cc(=O)[nH]c2cc3oc4ccccc4c3cc12

1. 36.4 µM
2. 31.9 µM
3. > 100 µM
4. > 100 µM
5. > 100 µM
6. > 100 µM

Would you mind listing TGI for each of the following molecules?
1. CC(=O)N1[C@H](C(=O)O)CS[C@H]1c1ccncc1
2. CC1(C)OC(=O)C(=Cc2ccc(O)cc2)C(=O)O1
3. NS(=O)(=O)c1ccccc1C(=O)N/N=C(\c1nc2ccc([N+](=O)[O-])cc2[nH]c1=O)C(O)c1ccc([N+](=O)[O-])cc1 (configuration not stated)
4. CC1=NN(c2nc(N)nc(/C(C#N)=C/c3ccccc3O)n2)C(C)(C)C1
5. COc1ccc2c(c1)C(=O)/C(=C/c1ccc(OCC(=O)Nc3nccs3)cc1)O2
6. O=C1/C(=C/c2ccc([N+](=O)[O-])cc2)COc2ccc(O)c(O)c21

1. > 100 µM
2. > 100 µM
3. > 100 µM
4. 28.8 µM
5. 16.3 µM
6. 4.61 µM

Would you mind listing TGI for each of the following molecules?
1. CCCCCCCC(=O)SCC/C=C/[C@@H]1CC(=O)NCc2cccc(n2)C2=N[C@@](C)(CS2)C(=O)N[C@@H](C(C)C)C(=O)N1
2. Cc1cc2nc(C(Cl)Cl)nc(-c3ccc(Cl)cc3)n2n1
3. COc1cc2nc(C)nc(N[C@H](C)c3cc(N)cc(C(F)(F)F)c3)c2cc1O[C@H]1CCOC1
4. NC1c2c(Br)sc(N3CCCC3)c2C(=O)C1O (configuration not stated)

8.35 µM
3.48 µM
26.5 µM
> 50 µM

====

Tested on: BT-549 breast
protocol-description: NCI tumour cell line growth inhibition, 48 h
measurement-name: TGI

Would you mind listing TGI for each of the following molecules?
1. C=CCC1(O)CC(n2cc(C)c(=O)[nH]c2=O)OC1CO[Si](C)(C)C(C)(C)C (centres undefined)
2. C=C(CNCCO)[C@@H]1CC[C@]2(CO)CC[C@]3(C)[C@H](CC[C@@H]4[C@@]5(C)CCC(N)C(C)(C)[C@@H]5CC[C@]43C)[C@@H]12 (some centres undefined)
3. CO[C@]1(c2ccc([N+](=O)[O-])cc2)Oc2ccccc2C(=O)[C@@]1(Nc1ccc(C=O)cc1)OC
4. CC[C@@]12CCCN3CC[C@]4(c5cccc(OC)c5N(C(C)=O)[C@@H]4CC1)[C@H]32

> 100 µM
4.9 µM
> 10 µM
> 100 µM

====

Test system: KM12 colon
protocol-description: NCI tumour cell line growth inhibition, 48 h
So I've got a bunch of compounds here, and I need their TGI values.
Numbers only, in µM.

[
  {
    "compound": "O=C(Nc1ccc(I)cc1)c1cc([N+](=O)[O-])ccc1O",
    "TGI, µM": 40.9
  },
  {
    "compound": "O=[N+]([O-])c1cccc2nc3ccccc3c(NCCCCNc3c4ccccc4nc4cccc([N+](=O)[O-])c34)c12",
    "TGI, µM": 0.204
  },
  {
    "compound": "CN1CCc2cc3c(c4c2C1C(O)c1ccccc1-4)OCO3 (stereo unspecified)",
    "TGI, µM": 24
  }
]

Would you mind listing TGI for each of the following compounds?
1. COc1cc2nc(-c3ccc(C(F)(F)F)cc3)cc(OCCCN3CCC(O)CC3)c2cc1OC
2. CCOC(=O)C(Sc1ccccc1)c1c(OC)cc(=O)oc1/C=[N+](/[O-])c1ccc(N(C)C)cc1 (stereo unspecified)
3. Cn1ccnc1C(=O)/C=C/c1ccc(CC(=O)Nc2ccc(Br)cc2)cc1

1: 24; 2: 47.4; 3: 5.51

====

Tested on: MDA-MB-231 breast
protocol-description: NCI tumour cell line growth inhibition, 48 h
measurement-name: TGI (µM)
Numbers only, in µM.

Look over these answered cases.
[
  {
    "structure": "COc1ccc(N2CN3OC(=O)N(c4ccc(OC)cc4)[C@@]3(c3ccccc3)C2)cc1",
    "unit-info": "µM",
    "TGI": 99.6
  },
  {
    "structure": "CC1=NN(c2nc(N)nc(/C(C#N)=C/c3ccccc3O)n2)C(C)(C)C1",
    "unit-info": "µM",
    "TGI": 40.7
  }
]

# evaluate next
Query (compound): COc1ccc2c(c1)C(=O)/C(=C/c1ccc(OCC(=O)Nc3nccs3)cc1)O2 ; field requested: TGI
5.78
